Molecular target: hTA1 C13S (Homo sapiens, UniProt Q96RJ0, C13S)
Construct: expressed in transfected cells; host or cells: HEK293T
Sequence (Q96RJ0 1-339 C13S): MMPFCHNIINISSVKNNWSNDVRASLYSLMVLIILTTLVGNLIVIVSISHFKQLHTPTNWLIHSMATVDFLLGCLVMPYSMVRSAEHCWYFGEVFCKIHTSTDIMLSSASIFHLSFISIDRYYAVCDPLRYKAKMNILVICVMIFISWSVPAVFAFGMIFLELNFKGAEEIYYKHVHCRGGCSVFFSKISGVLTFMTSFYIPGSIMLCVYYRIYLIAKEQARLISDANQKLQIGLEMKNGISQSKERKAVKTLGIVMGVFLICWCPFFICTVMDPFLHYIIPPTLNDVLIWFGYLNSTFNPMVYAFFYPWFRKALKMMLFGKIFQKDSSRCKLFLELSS
Test: GloSensor cAMP accumulation assay, C13S mutant
Format: cell-based
Conditions: EC50, C13S; n=2
reportedProperty: EC50
Write the numeric value and append its unit.

Query block: // query EC50 value for entry CCC(CC1COC(N)=N1)c1ccccc1 (stereo not shown) [Ro5256390]
Result block: 9.21 nM

---

target: hTA1 C88/178S (Homo sapiens, UniProt Q96RJ0, C178S/C88S); construct: expressed in transfected cells; host or cells: HEK293T; assay: GloSensor cAMP accumulation assay, C88S/C178S double mutant; format: cell-based; settings: EC50, C88/178S; n=2
reportedProperty: pEC50
# log scale: pEC50 equals minus log10 of the concentration in mol/L

Query block: API: value(readout=pEC50, system=hTA1 C88/178S (Homo sapiens, UniProt Q96RJ0, C178S/C88S)) for record CCC(CC1COC(N)=N1)c1ccccc1 (stereo not shown)
Result block: 8.27

---

target: hTA1 C88S (Homo sapiens, UniProt Q96RJ0, C88S); construct: expressed in transfected cells; host or cells: HEK293T; experiment: GloSensor cAMP accumulation assay, C88S mutant; assay type: cell-based; details: pEC50 ± SEM, C88S; n=2
reportedProperty: EC50

Query block: Give the measured EC50 of CCC(CC1COC(N)=N1)c1ccccc1 (stereo not shown) .
Result block: 3.09 nM

---

Biological target: hTA1 (Homo sapiens)
Construct: expressed in transfected cells; host or cells: HEK293T
Sequence (Q96RJ0 1-339): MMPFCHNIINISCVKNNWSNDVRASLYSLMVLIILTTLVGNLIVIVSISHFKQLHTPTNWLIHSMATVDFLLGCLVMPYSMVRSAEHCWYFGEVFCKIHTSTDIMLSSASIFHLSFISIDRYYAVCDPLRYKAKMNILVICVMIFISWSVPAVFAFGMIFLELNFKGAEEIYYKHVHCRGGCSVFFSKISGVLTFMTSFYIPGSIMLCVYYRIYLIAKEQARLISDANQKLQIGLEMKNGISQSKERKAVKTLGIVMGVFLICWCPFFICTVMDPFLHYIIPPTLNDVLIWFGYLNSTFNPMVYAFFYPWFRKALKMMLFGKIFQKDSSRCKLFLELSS
Experiment: GloSensor cAMP accumulation assay, concentration response, wild-type hTA1 in transfected HEK293T cells;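 note: luminescence read after 30 min compound exposure at room temperature in cells preloaded with D-Luciferin, reflecting Gs-driven cAMP rise, efficacy scaled to the maximal β-PEA response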
Assay type: cell-based
Conditions: WT; average of the two experiments
reportedProperty: Emax values, Avg
Please respond with just the number, no unit label.

compound: Cc1c(F)cccc1[C@H]1COC(N)=N1 [Ro5263397]
Emax values, Avg: 86.7

Query block: Please tell me: Emax values, Avg of CCc1[nH]nc(C(=O)Nc2ccc([C@H]3CNCCO3)cc2)c1C [ralmitaront] , system hTA1 (Homo sapiens)?
Result block: 40.11

Query block: Try this compound too: CCC(CC1COC(N)=N1)c1ccccc1 (stereo not drawn) [Ro5256390]
Result block: 103.3

Query block: Another: NCCc1ccc(O)cc1 [TYR, tyramine]
Result block: 98.98

Query block: Request: NCCc1ccccc1 [β-PEA, β-phenethylamine]
Result block: 100

Query block: Now the same for NCCc1ccc(Oc2ccc(O)cc2)c(I)c1 [T1AM, 3-iodothyronamine]
Result block: 70.45
